Recorded values, source PubChem BioAssay (NCI).

- Test system: SF-295 CNS
- experiment.description: NCI tumour cell line growth inhibition, 48 h
# maps each entry to its TGI

1) O=C1CS/C(=N/S(=O)(=O)c2ccc(N3N=C4c5ccccc5CC4C3c3cccs3)cc2)N1C(=O)c1ccccc1 (centres undefined) ... > 100 µM

Q) Sample C=C(Br)C[N+]12CN3CN(CN(C3)C1)C2 — what was its TGI?
A) > 100 µM

Q) Sample CC(C)C1(NC(=O)C2CC3c4cccc5[nH]cc(c45)CC3N(C)C2)OC2(O)C3CCCN3C(=O)C(Cc3ccccc3)N2C1=O (centres undefined) — what was its TGI?
A) > 100 µM

Q) Sample CN1CCN(C(=O)c2ccc(NC(=O)Nc3ccc(-c4nc(N5CCOCC5)c5cccn5n4)cc3)cc2)CC1 — what was its TGI?
A) 0.239 µM

---

- Tested on: T-47D breast
- experiment.description: NCI tumour cell line growth inhibition, 48 h
# maps each entry to its TGI

Here is how some compounds turned out for TGI.
1) CN(C)C=N[C@@H](C(=O)O)c1ccccc1 ... > 100 µM
2) CC(=O)CC(=O)N1CCSC1=S ... > 10 µM

Q) Sample CC(C)=Cc1cc(CCC/C(C)=C/Cc2c(O)cc(C)c(C(=O)O)c2O)co1 — what was its TGI?
A) > 100 µM

Q) Sample O=c1[nH]nc(-c2ccccc2)c2[nH]c3c(c12)Cc1ccccc1-3 — what was its TGI?
A) > 100 µM

Q) Sample COc1cc(S(=O)(=O)Nc2nc(-c3ccc(N4C(=O)C(C)SC4c4ccccc4O)cc3)cs2)ccc1Cl (stereo not given) — what was its TGI?
A) > 100 µM

Q) Sample Cc1c(Nc2nccc3cc(CN4CC[C@@H](O)C4)cnc23)cccc1-c1cccc(-c2nc3cc(CN4CC[C@@H](C(=O)O)C4)cc(C#N)c3o2)c1C — what was its TGI?
A) > 100 µM

Q) Sample Cc1cc(=O)[nH]c(N/N=C/c2ccccc2O)n1 — what was its TGI?
A) > 100 µM

Q) Sample CC(C)OP(=O)(OC(C)C)C(C(C)C)N(C)C(N)=NC#N (stereo not given) — what was its TGI?
A) > 100 µM

Q) Sample CC(OP(=O)(O)O)C(N)C(=O)O (stereo not given) — what was its TGI?
A) > 100 µM

Q) Sample O=C1C=C(N2CCN(c3ncccn3)CC2)C(=O)c2c(O)ccc(O)c21 — what was its TGI?
A) > 100 µM

Q) Sample C=C(CN(CC)CC)C1(c2ccccc2)CC2(CCCC2)C(=O)O1 (stereo not given) — what was its TGI?
A) > 100 µM

---

- System: SK-OV-3 ovarian
- experiment.description: NCI tumour cell line growth inhibition, 48 h
recorded.endpoint: TGI

1) Oc1c(Cl)cc2cc1-c1cc(cc(Cl)c1O)CCc1c(cc(Cl)c(O)c1Cl)-c1cc(Cl)c(c(Cl)c1O)/C=C\2 ... 18 µM
2) Cc1ccccc1-n1c(=S)[nH]c2c(sc(=O)n2-c2ccccc2C)c1=O ... > 100 µM
3) COc1cccc(C(C#N)NNC(=O)c2c(Cl)c(Cl)c(Cl)c(Cl)c2-c2nc3ccc(C(=O)c4ccccc4)cc3[nH]2)c1O (stereo not given) ... > 100 µM
4) CC(C)(C)c1cc(OCc2nnc3sc(Cc4ccccc4)nn23)c(Cl)cc1OCc1nnc2sc(Cc3ccccc3)nn12 ... > 100 µM
5) CCC(C)(O)c1cn(-c2ccc(Cl)cc2)nn1 (stereo not given) ... > 100 µM
6) Nc1ccc2c(=O)cc(-c3ccc(Br)s3)[nH]c2n1 ... > 53.1 µM
7) CC/C=C/c1cc2c(cc1O)CCC1C2CC[C@@]2(C)C1CC[C@@H]2O (stereo not given in full) ... 16.7 µM
8) Brc1cc(C2OCCCO2)ccc1OCc1ccccc1 ... > 100 µM

Q) Sample COC(=O)CCC(=O)NC1=C(Nc2ccccc2)C(=O)c2ccccc2C1=O — what was its TGI?
A) 30.9 µM

Q) Sample CCOC(=O)c1sc2c(C(=O)OCC)n3cc(C)cc(C)c3c2c1O — what was its TGI?
A) > 100 µM

---

- System: NCI-H226 lung
- experiment.description: NCI tumour cell line growth inhibition, 48 h
Respond with satisfied for TGI values of 70 µM and above, not satisfied for values below.

Solved entries:
1. N/N=C(/N)SCCCCCCCCCCS/C(N)=N/N ... satisfied
2. Cc1ccc(S(=O)(=O)n2cc([C@@]3(O)C[C@H](CSC#N)OC3=O)c3ccccc32)cc1 ... not satisfied
3. O=C1c2ccccc2C2(c3ccc(F)cc3)NCCN12 (centres undefined) ... satisfied

Q) Tell me whether TGI is at least 70 µM here: COc1ccc2c(c1O)[C@@]13CCCC=C1[C@@H](C2)[N+](C)(C)CC3
A) satisfied

Q) Tell me whether TGI is at least 70 µM here: CN(C)C=N[C@@H](C(=O)O)c1ccccc1
A) satisfied

Q) Tell me whether TGI is at least 70 µM here: O=c1[nH]cc(N=Cc2cc(Cl)ccc2O)c(=O)[nH]1
A) satisfied

Q) Tell me whether TGI is at least 70 µM here: C=C(Br)C[N+]12CN3CN(CN(C3)C1)C2
A) satisfied

Q) Tell me whether TGI is at least 70 µM here: CC1=C(CO)C(=O)O[C@@H]([C@@H](C)[C@H]2CC[C@H]3[C@@H]4C[C@H]5O[C@]56[C@@H](O)C=CC(=O)[C@]6(C)[C@H]4CC[C@]23C)C1
A) not satisfied

Q) Tell me whether TGI is at least 70 µM here: CS(=O)(=O)c1ccc(COP(N)(=O)N(CCCl)CCCl)cc1 (centres undefined)
A) satisfied

---

- Test system: SNB-75 CNS
- experiment.description: NCI tumour cell line growth inhibition, 48 h
# maps each entry to its log10 of TGI
Base-10 log of TGI, unit µM.

Here is how some compounds turned out for log10 of TGI.
1) COC(=O)CC1(O)C=CC(=O)C=C1 ... 1.15
2) Cc1cc(S(=O)(=O)Nc2nc3cscc3c(=O)n2N)c(S)cc1Cl ... 1.77
3) CCOC(=O)c1c(-c2ccccc2)[n+](=O)c2cc(F)c(F)cc2n1[O-] ... 0.56
4) O=c1c2ccccc2nc(N/N=C/c2ccc([N+](=O)[O-])cc2)n1-c1ccccc1 ... 1.75
5) COc1cc(C2c3cc4c(cc3OC(O)C2C)OCO4)cc(OC)c1OC (stereo not given) ... 0.69
6) CC(C)(C)c1cc(OCc2nnc3sc(Cc4ccccc4)nn23)c(Cl)cc1OCc1nnc2sc(Cc3ccccc3)nn12 ... 1.93
7) O=C(O)COc1ccc(OCC(=O)O)cc1 ... 1.00
8) COc1cc2c3c(n(C)c(=O)c2cc1OC)-c1cc2c(cc1/C3=C\CCCCCBr)OCO2 ... 1.63

Q) SNB-75 CNS / log10 of TGI / CC1=C(CO)C(=O)O[C@@H]([C@@H](C)[C@H]2CC[C@H]3[C@@H]4C[C@H]5O[C@]56[C@@H](O)C=CC(=O)[C@]6(C)[C@H]4CC[C@]23C)C1 : value?
A) 0.51

Q) SNB-75 CNS / log10 of TGI / Oc1cccc2c(Br)ccnc12 : value?
A) 1.82

Q) SNB-75 CNS / log10 of TGI / CCN(CC)CCCNCc1cc(-c2ccccc2)nc2cc(Cl)ccc12 : value?
A) 0.64

---

# maps each entry to its TGI
- Test system: COLO 205 colon
- experiment.description: NCI tumour cell line growth inhibition, 48 h

Here is how some compounds turned out for TGI.
1) C/C(=N\Nc1nc2ccccc2[nH]1)c1ncccn1 ... > 49.6 µM
2) CC(/C=C/C(=O)c1sc(C(N)=S)nc1C)=C\c1ccccc1 ... > 100 µM

Q) Sample CC(C)N(C(=O)C12C3C4C5(C(=O)O)C(C1C35I)C42C(=O)O)C(C)C (centres undefined) — what was its TGI?
A) > 100 µM

Q) Sample O=c1[nH]nc(-c2ccccc2)c2[nH]c3c(c12)Cc1ccccc1-3 — what was its TGI?
A) > 34.4 µM

---

- Test system: SK-MEL-2 melanoma
- experiment.description: NCI tumour cell line growth inhibition, 48 h
Where a SMILES comes first, the peptide text is derived from it. The star is where a group is joined. Boc = CC(C)(C)OC(=O)*
recorded.endpoint: TGI (µM)
Dear colleague, please return just the value in µM, with no unit written.

Here is how some compounds turned out for TGI.
1) CN1CCN(Cc2ccc(NC(=O)c3[nH]ncc3Nc3ncnc4[nH]ccc34)cc2)CC1 ... 0.921
2) COC(=O)C(Cc1c[nH]c2ccccc12)NC(=O)C(Cc1c[nH]c2ccccc12)NC(=O)C(Cc1c[nH]c2ccccc12)NC(=O)C(Cc1c[nH]c2ccccc12)NC(=O)C(Cc1c[nH]c2ccccc12)NC(=O)C(Cc1c[nH]c2ccccc12)NC(=O)C(Cc1c[nH]c2ccccc12)NC(=O)OC(C)(C)C (stereo not drawn) (Boc-WWWWWWW-OMe; configuration not given here) ... 87.9

Q) Sample N/N=C(/N)SCCCCCCCCCCS/C(N)=N/N — what was its TGI?
A) 52.8

Q) Sample C/C(=C\Cc1ccc(F)cc1)CCCCCC/C(C)=C/Cc1ccc(F)cc1 — what was its TGI?
A) 37.2

Q) Sample COc1cc(Cc2c(C)cc(OC)c3[nH]c4ccccc4c23)cc2c1[nH]c1ccccc12 — what was its TGI?
A) 11.6

Q) Sample Cc1ccc2oc(=O)c3c(O)c4cccc(OC5OC(C)C6O[C@@H](c7ccccc7)OC6C5OC5OC(C)C(O)C(O)C5O)c4c4oc(=O)c1c2c34 (stereo partly drawn) — what was its TGI?
A) 1.68

Q) Sample CCC1=C(C[C@H]2NCCc3cc(OC)c(OC)cc32)C[C@H]2c3cc(OC)c(OC)cc3CCN2C1 — what was its TGI?
A) 0.0713
